# system: Avi-KRAS G12R (1-169) GppNHp/RAF1 RBD-3xFLAG (52-151) (Homo sapiens, UniProt P01116, G12R)
# Construct: Avi-KRAS G12R (1-169)
# Sequence (P01116 1-169 isoform P01116-2 G12R): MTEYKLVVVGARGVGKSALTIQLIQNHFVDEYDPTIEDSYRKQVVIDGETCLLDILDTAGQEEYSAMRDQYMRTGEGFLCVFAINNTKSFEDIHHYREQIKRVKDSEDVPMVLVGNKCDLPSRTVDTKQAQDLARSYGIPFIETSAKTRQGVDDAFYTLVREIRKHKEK
# assay: Raf1-KRAS G12R-GppNHP disruption HTRF assay (Biological Example 1)
# Format: binding
# measurement parameters: KRAS G12R, GppNHp-loaded; class symbols
readout type: IC50

Solved cases (3 shown):
{"compound": "CCN(c1nc(OC[C@@]23CCCN2C[C@H](F)C3)nc2c(F)c(-c3ccc(F)c4sc(N)c(C#N)c34)c(C(F)(F)F)cc12)[C@H]1CCN(C(=O)c2ccns2)C1 (atropisomer, axis not shown)", "IC50": "< 0.1 µM"}
{"compound": "CCN(c1nc(OC[C@@]23CCCN2C[C@H](F)C3)nc2c(F)c(-c3ccc(F)c4sc(N)c(C#N)c34)c(C(F)(F)F)cc12)[C@H]1CCN(C(=O)[C@H]2CCO2)[C@@H]1C (atropisomer, axis not shown)", "IC50": "< 0.1 µM"}
{"compound": "N#Cc1c(N)sc2c(F)ccc(-c3c(C(F)(F)F)cc4c(N5C[C@H]6[C@@H]5CCN6C(=O)C5CC5)nc(OC[C@@]56CCCN5C[C@H](F)C6)nc4c3F)c12 (atropisomer, axis not shown)", "IC50": "1 to 10 µM"}

Now for a further compound.
# IC50 of CCN(c1nc(OCC23CCCN2CC(F)C3)nc2c(F)c(-c3ccc(F)c4sc(N)c(C#N)c34)c(C(F)(F)F)cc12)C1CCN(C(=O)c2ncccn2)C1 (stereo not shown) = < 0.1 µM

* * *

# Tested on: AsPC-1 cells (KRAS G12D)
# assay: 3D Cell viability assay in AsPC-1 cells (Biological Example 6)
# Assay type: cell-based
# measurement parameters: Homo sapiens, ASPC1; AsPC-1 (KRAS G12D) spheroids, 72 hours
readout type: IC50

{"molecule": "CCN(c1nc(OC[C@@]23CCCN2C[C@H](F)C3)nc2c(F)c(-c3ccc(F)c4sc(N)c(C#N)c34)c(C(F)(F)F)cc12)[C@H]1CC(=O)N2CCC[C@@H]12 (atropisomer, axis not shown; (aS))", "result": "≤ 100 nM"}
{"molecule": "CCC(=O)N1C[C@@H](N(CC)c2nc(OC[C@@]34CCCN3C[C@H](F)C4)nc3c(F)c(-c4ccc(F)c5sc(N)c(C#N)c45)c(C(F)(F)F)cc23)C[C@H]1C", "result": "≤ 100 nM"}
{"molecule": "CCN(c1nc(OC[C@@]23CCCN2C[C@H](F)C3)nc2c(F)c(-c3ccc(F)c4sc(N)c(C#N)c34)c(C(F)(F)F)cc12)[C@H]1C[C@H](C)N(C(=O)OC)C1 (atropisomer, axis not shown)", "result": "≤ 100 nM"}

# IC50 of CCC(=O)N1CC[C@@H](N(CC)c2nc(OC[C@@]34CCCN3C[C@H](F)C4)nc3c(F)c(-c4ccc(F)c5sc(N)c(C#N)c45)c(C(F)(F)F)cc23)[C@H]1C (atropisomer, axis not shown) = 100 to 1000 nM

# IC50 of CCN(c1nc(OC[C@@]23CCCN2C[C@H](F)C3)nc2c(F)c(-c3ccc(F)c4sc(N)c(C#N)c34)c(C(F)(F)F)cc12)[C@H]1C[C@@H]2COC(=O)N2C1 (atropisomer, axis not shown) = ≤ 100 nM

* * *

# System: GP2d cells (KRAS G12D)
# assay: Cell-based pERK HTRF assay in GP2d cell (Biological Example 2)
# measurement parameters: GP2d, GP2d (KRAS G12D) cells, pERK HTRF; class symbols
Readings of IC50 for the listed compounds

{"compound": "CCN(c1nc(OC[C@@]23CCCN2C[C@H](F)C3)nc2c(F)c(-c3ccc(F)c4sc(N)c(C#N)c34)c(C(F)(F)F)cc12)[C@H]1C[C@H](C)N(C(=O)[C@H](C)OC)C1 (atropisomer, axis not shown)", "system": "GP2d cells (KRAS G12D)", "readout type": "IC50", "result": "< 100 nM"}

# IC50 of CCN(c1nc(OC[C@@]23CCCN2C[C@H](F)C3)nc2c(F)c(-c3ccc(F)c4sc(N)c(C#N)c34)c(C(F)(F)F)cc12)[C@H]1CCN(C(=O)N2CC(OC(F)F)C2)C1 (atropisomer, axis not shown) = < 100 nM

* * *

# Test system: HPAC cells (KRAS G12D)
# assay: 3D Cell viability assay in HPAC cells (Biological Example 6)
# Type: cell-based
# measurement parameters: Homo sapiens, HPAC, 72 h, HPAC (KRAS G12D) spheroids
readout type: IC50

Solved cases (4 shown):
{"compound": "N#Cc1c(N)sc2c(F)ccc(-c3c(C(F)(F)F)cc4c(N5CC6CC(C5)O6)nc(OC[C@@]56CCCN5C[C@H](F)C6)nc4c3F)c12 (single isomer, unassigned) [Compound 275]", "result": "> 1000 nM"}
{"compound": "CC(=O)N1CC[C@@H](N(C)c2nc(OC[C@@]34CCCN3C[C@H](F)C4)nc3c(F)c(-c4ccc(F)c5sc(N)c(C#N)c45)c(C(F)(F)F)cc23)[C@H]1C (single isomer, unassigned) [Compound 193]", "result": "100 to 1000 nM"}
{"compound": "N#Cc1c(N)sc2c(F)ccc(-c3c(C(F)(F)F)cc4c(N5CCOCC5)nc(OC[C@@]56CCCN5C[C@H](F)C6)nc4c3F)c12 (single isomer, unassigned) [Compound 198]", "result": "100 to 1000 nM"}
{"compound": "N#Cc1cnn2c1CN(c1nc(OC[C@@]34CCCN3C[C@H](F)C4)nc3c(F)c(-c4ccc(F)c5sc(N)c(C#N)c45)c(C(F)(F)F)cc13)CC2 [Compound 392]", "result": "100 to 1000 nM"}

Now for a further compound.
# IC50 of CC(=O)N1CC[C@@H](N(C)c2nc(OC[C@@]34CCCN3C[C@H](F)C4)nc3c(F)c(-c4ccc(F)c5sc(N)c(C#N)c45)c(Cl)cc23)[C@H]1C [Compound 398] = 100 to 1000 nM

* * *

# System: AsPC-1 cells (KRAS G12D)
# assay: Cell-based pERK HTRF assay in AsPC-1 cells (Biological Example 5)
# measurement parameters: AsPC-1 (KRAS G12D) cells
pIC50: −log10 of the molar value.
readout type: pIC50

{"molecule": "CCN(c1nc(OCC23CCCN2CC(F)C3)nc2c(F)c(-c3ccc(F)c4sc(N)c(C#N)c34)c(C(F)(F)F)cc12)C1CC(C)N(C(=O)N2CC(F)C2)C1 (centres unmarked)", "pIC50": "≥ 7.00"}

Now for a further molecule.
# value of pIC50, AsPC-1 cells (KRAS G12D), item `CCN(c1nc(OC[C@@]23CCCN2C[C@H](F)C3)nc2c(F)c(-c3ccc(F)c4sc(N)c(C#N)c34)c(C(F)(F)F)cc12)[C@H]1CCN(C(=O)C(C)C)C1` = ≥ 7.00

* * *

# system: Avi-KRAS G12R (1-169) GppNHp/RAF1 RBD-3xFLAG (52-151) (Homo sapiens, UniProt P01116, G12R)
# Construct: Avi-KRAS G12R (1-169)
# assay: Raf1-KRAS G12R-GppNHP disruption HTRF assay (Biological Example 1)
# Format: binding
# measurement parameters: KRAS G12R, GppNHp-loaded; class symbols
readout type: IC50

Solved cases (4 shown):
{"molecule": "[2H]C1([2H])CN2C[C@H](F)C[C@]2(COc2nc(N3C[C@H]4C[C@@H]3CO4)c3cc(C(F)(F)F)c(-c4ccc(F)c5sc(N)c(C#N)c45)c(F)c3n2)C1 [Compound 567]", "system": "Avi-KRAS G12R (1-169) GppNHp/RAF1 RBD-3xFLAG (52-151) (Homo sapiens, UniProt P01116, G12R)", "result": "100 to 1000 nM"}
{"molecule": "CCN(c1nc(OC[C@@]23CCCN2C[C@H](F)C3)nc2c(F)c(-c3ccc(F)c4sc(N)c(C#N)c34)c(C(F)(F)F)cc12)[C@H]1CCN(C(=O)c2ncco2)C1 (atropisomer, axis not shown) [Compound 584]", "system": "Avi-KRAS G12R (1-169) GppNHp/RAF1 RBD-3xFLAG (52-151) (Homo sapiens, UniProt P01116, G12R)", "result": "< 100 nM"}
{"molecule": "C=C(C)C(=O)N1CC[C@H](N(CC)c2nc(OC[C@@]34CCCN3C[C@H](F)C4)nc3c(F)c(-c4ccc(F)c5sc(N)c(C#N)c45)c(C(F)(F)F)cc23)C1 (atropisomer, axis not shown) [Compound 673]", "system": "Avi-KRAS G12R (1-169) GppNHp/RAF1 RBD-3xFLAG (52-151) (Homo sapiens, UniProt P01116, G12R)", "result": "< 100 nM"}
{"molecule": "COC1CN(C(=O)N2CC[C@H](N(c3nc(OC[C@@]45CCCN4C[C@H](F)C5)nc4c(F)c(-c5ccc(F)c6sc(N)c(C#N)c56)c(C(F)(F)F)cc34)C3CC3)C2)C1 (atropisomer, axis not shown) [Compound 801]", "system": "Avi-KRAS G12R (1-169) GppNHp/RAF1 RBD-3xFLAG (52-151) (Homo sapiens, UniProt P01116, G12R)", "result": "100 to 1000 nM"}

Now for a further molecule.
# IC50 of C/C=C\C(=O)N1CC[C@H](N(CC)c2nc(OC[C@@]34CCCN3C[C@H](F)C4)nc3c(F)c(-c4ccc(F)c5sc(N)c(C#N)c45)c(C(F)(F)F)cc23)C1 (atropisomer, axis not shown) [Compound 677] = < 100 nM
